Would you mind telling me the reported HEMOGLOBIN of each entry?
Species on record: Rattus norvegicus
Test: DrugMatrix - Regimen: Daily Repeat
Type: toxicity, organism-based, Sprague-Dawley
Parameters: regimen Daily Repeat, gender Male, age 6-8 weeks
Details: in vivo, po, 0 mg/kg, 72 h, tissue Blood, route oral GAVAGE, dose level Control, time 3 day, vehicle .5 % CMC
API: value field is a number in G/DL; no unit string.

Enquiry: Name the recorded HEMOGLOBIN for O=C(CCCN1CC=C(n2c(=O)[nH]c3ccccc32)CC1)c1ccc(F)cc1 [DROPERIDOL] .
Return: 13.62

Enquiry: Name the recorded HEMOGLOBIN for CCn1cc(C(=O)O)c(=O)c2cc(F)c(N3CCNCC3)cc21 [NORFLOXACIN] .
Return: 14.22

Enquiry: Name the recorded HEMOGLOBIN for ClC(Br)Br [DIBROMOCHLOROMETHANE] .
Return: 12.02

Enquiry: Name the recorded HEMOGLOBIN for Nc1ccn([C@H]2CC[C@@H](CO)O2)c(=O)n1 [ZALCITABINE] .
Return: 14.63

Enquiry: Name the recorded HEMOGLOBIN for CCOP(=S)(OCC)Oc1nc(Cl)c(Cl)cc1Cl [CHLORPYRIFOS] .
Return: 13.52

---

Organism: Rattus norvegicus
Assay: DrugMatrix - Regimen: Daily Repeat
Assay type: toxicity, organism-based, Sprague-Dawley
Set-up: regimen Daily Repeat, gender Male, age 6-8 weeks
Settings: in vivo, po, 0 mg/kg, 120 h, tissue Blood, route oral GAVAGE, dose level Control, time 5 day, […]
We label by threshold. Values of ABSOLUTE LYMPHOCYTE strictly beneath 10000 CELLS/uL are 1 (yes). Values of 10000 CELLS/uL and up are 0 (no).

Enquiry: Threshold test, ABSOLUTE LYMPHOCYTE < 10000 CELLS/uL: CN(C)c1nc(N(C)C)nc(N(C)C)n1 [ALTRETAMINE]
Return: 1 (yes)

Enquiry: Threshold test, ABSOLUTE LYMPHOCYTE < 10000 CELLS/uL: CC(C)C(=O)Nc1ccc([N+](=O)[O-])c(C(F)(F)F)c1 [FLUTAMIDE]
Return: 0 (no)

Enquiry: Threshold test, ABSOLUTE LYMPHOCYTE < 10000 CELLS/uL: Cc1noc(NS(=O)(=O)c2ccc(N)cc2)c1C [SULFISOXAZOLE]
Return: 0 (no)

Enquiry: Threshold test, ABSOLUTE LYMPHOCYTE < 10000 CELLS/uL: C[C@@H]1CN(c2c(F)c(N)c3c(=O)c(C(=O)O)cn(C4CC4)c3c2F)C[C@H](C)N1 [SPARFLOXACIN]
Return: 1 (yes)

Enquiry: Threshold test, ABSOLUTE LYMPHOCYTE < 10000 CELLS/uL: O=NN(CCCl)C(=O)NC1CCCCC1 [LOMUSTINE]
Return: 1 (yes)

Enquiry: Threshold test, ABSOLUTE LYMPHOCYTE < 10000 CELLS/uL: Cc1ccc(-c2cc(C(F)(F)F)nn2-c2ccc(S(N)(=O)=O)cc2)cc1 [CELECOXIB]
Return: 0 (no)

Enquiry: Threshold test, ABSOLUTE LYMPHOCYTE < 10000 CELLS/uL: CCC(C)n1ncn(-c2ccc(N3CCN(c4ccc(OCC5COC(Cn6cncn6)(c6ccc(Cl)cc6Cl)O5)cc4)CC3)cc2)c1=O (centres undefined) [ITRACONAZOLE]
Return: 0 (no)

Enquiry: Threshold test, ABSOLUTE LYMPHOCYTE < 10000 CELLS/uL: CCOC(=O)C1=C(COCCN)NC(C)=C(C(=O)OC)C1c1ccccc1Cl (centres undefined) [AMLODIPINE]
Return: 1 (yes)

Enquiry: Threshold test, ABSOLUTE LYMPHOCYTE < 10000 CELLS/uL: O=c1oc2ccccc2c(O)c1Cc1c(O)c2ccccc2oc1=O [DICUMAROL]
Return: 1 (yes)

---

Species: Rattus norvegicus
Assay: DrugMatrix - Regimen: Daily Repeat
Assay type: toxicity, organism-based, Sprague-Dawley
Parameters: regimen Daily Repeat, gender Male, age 6-8 weeks
Conditions: in vivo, po, 0 mg/kg, 72 h, tissue Plasma, route oral GAVAGE, dose level Control, time 3 day, […]
Would you mind telling me the reported TOTAL PROTEIN of each entry?
# answer = value followed by unit

Enquiry: Name the recorded TOTAL PROTEIN for O=C(O)CCCc1ccc(N(CCCl)CCCl)cc1 [CHLORAMBUCIL] .
Return: 5.72 G/DL

Enquiry: Name the recorded TOTAL PROTEIN for CN(C)c1nc(N(C)C)nc(N(C)C)n1 [ALTRETAMINE] .
Return: 5.67 G/DL

Enquiry: Name the recorded TOTAL PROTEIN for CCC(C)n1ncn(-c2ccc(N3CCN(c4ccc(OCC5COC(Cn6cncn6)(c6ccc(Cl)cc6Cl)O5)cc4)CC3)cc2)c1=O (stereo unspecified) [ITRACONAZOLE] .
Return: 5.72 G/DL

Enquiry: Name the recorded TOTAL PROTEIN for Cc1noc(NS(=O)(=O)c2ccc(N)cc2)c1C [SULFISOXAZOLE] .
Return: 5.7 G/DL

Enquiry: Name the recorded TOTAL PROTEIN for C[C@@H]1CN(c2c(F)c(N)c3c(=O)c(C(=O)O)cn(C4CC4)c3c2F)C[C@H](C)N1 [SPARFLOXACIN] .
Return: 5.67 G/DL

Enquiry: Name the recorded TOTAL PROTEIN for Cc1oncc1C(=O)Nc1ccc(C(F)(F)F)cc1 [LEFLUNOMIDE] .
Return: 5.47 G/DL

---

Organism: Rattus norvegicus
Assay: DrugMatrix - Regimen: Daily Repeat
Format: toxicity, organism-based, Sprague-Dawley
Set-up: regimen Daily Repeat, gender Male, age 6-8 weeks
Settings: in vivo, po, 0 mg/kg, 72 h, tissue Plasma, route oral GAVAGE, dose level Control, time 3 day, […]
We label by threshold. Values of ALKALINE PHOSPHATASE strictly beneath 400 u/L are TRUE. Values of 400 u/L and up are FALSE.

Enquiry: Threshold test, ALKALINE PHOSPHATASE < 400 u/L: `O=C(O)CCCc1ccc(N(CCCl)CCCl)cc1`
Return: TRUE

Enquiry: Threshold test, ALKALINE PHOSPHATASE < 400 u/L: `O=NN(CCCl)C(=O)NC1CCCCC1`
Return: TRUE

Enquiry: Threshold test, ALKALINE PHOSPHATASE < 400 u/L: CCC(C)n1ncn(-c2ccc(N3CCN(c4ccc(OCC5COC(Cn6cncn6)(c6ccc(Cl)cc6Cl)O5)cc4)CC3)cc2)c1=O (centres undefined)
Return: TRUE

Enquiry: Threshold test, ALKALINE PHOSPHATASE < 400 u/L: `CC(C)(Oc1ccc(Cl)cc1)C(=O)O`
Return: TRUE

Enquiry: Threshold test, ALKALINE PHOSPHATASE < 400 u/L: CC(C)C(=O)Nc1ccc([N+](=O)[O-])c(C(F)(F)F)c1 [FLUTAMIDE]
Return: TRUE

Enquiry: Threshold test, ALKALINE PHOSPHATASE < 400 u/L: `Cc1noc(NS(=O)(=O)c2ccc(N)cc2)c1C`
Return: FALSE

Enquiry: Threshold test, ALKALINE PHOSPHATASE < 400 u/L: `O=c1oc2ccccc2c(O)c1Cc1c(O)c2ccccc2oc1=O`
Return: FALSE

Enquiry: Threshold test, ALKALINE PHOSPHATASE < 400 u/L: `Cc1ccc(-c2cc(C(F)(F)F)nn2-c2ccc(S(N)(=O)=O)cc2)cc1`
Return: TRUE

Enquiry: Threshold test, ALKALINE PHOSPHATASE < 400 u/L: CCOC(=O)C1=C(COCCN)NC(C)=C(C(=O)OC)C1c1ccccc1Cl (centres undefined)
Return: TRUE

Enquiry: Threshold test, ALKALINE PHOSPHATASE < 400 u/L: Cc1oncc1C(=O)Nc1ccc(C(F)(F)F)cc1 [LEFLUNOMIDE]
Return: TRUE

Enquiry: Threshold test, ALKALINE PHOSPHATASE < 400 u/L: `CN(C)c1nc(N(C)C)nc(N(C)C)n1`
Return: TRUE

Enquiry: Threshold test, ALKALINE PHOSPHATASE < 400 u/L: `OC(Cn1cncn1)(Cn1cncn1)c1ccc(F)cc1F`
Return: TRUE

Enquiry: Threshold test, ALKALINE PHOSPHATASE < 400 u/L: `C[C@@H]1CN(c2c(F)c(N)c3c(=O)c(C(=O)O)cn(C4CC4)c3c2F)C[C@H](C)N1`
Return: TRUE

---

Would you mind telling me the reported NEUTROPHIL of each entry?
Species: Rattus norvegicus
Test: DrugMatrix - Regimen: Daily Repeat
Type: toxicity, organism-based, Sprague-Dawley
Design: regimen Daily Repeat, gender Male, age 6-8 weeks
Conditions: in vivo, po, 0 mg/kg, […], tissue Blood, route oral GAVAGE, dose level Control, time 14 day, vehicle .5 % CMC
API: value field is a number in %; no unit string.

Enquiry: Name the recorded NEUTROPHIL for `ClC(Br)Br` .
Return: 15

Enquiry: Name the recorded NEUTROPHIL for `ClC(Cl)Br` .
Return: 15

Enquiry: Name the recorded NEUTROPHIL for `CCOP(=S)(OCC)Oc1nc(Cl)c(Cl)cc1Cl` .
Return: 15.18

Enquiry: Name the recorded NEUTROPHIL for `COc1ccc(C(=O)Nc2c(Cl)c[n+]([O-])cc2Cl)c2ccc(C(F)(F)F)nc12` .
Return: 15.17
